# System: Tetranychus urticae
# measurement description: Acaricidal activity against Tetranychus urticae (two-spotted spider mite) infested kidney bean leaf assessed as mortality at 50 ppm after 5 days
# Type: functional
# test context: 120 h
measured metric: mortality at 50 ppm

| molecule | assay system | value observed |
| --- | --- | --- |
| Cn1nc2c(c1C(=O)NCc1ccc(C(C)(C)C)cc1)CCC2 | Tetranychus urticae | 3% |
| Cn1nc2c(c1C(=O)NCc1ccc(CC(C)(C)C)cc1)CCC2 | Tetranychus urticae | 1% |
| Cc1ccc(CNC(=O)c2c3c(nn2C)CCC3)cc1 | Tetranychus urticae | 0% |
| CCCCc1ccc(CNC(=O)c2c3c(nn2C)CCC3)cc1 | Tetranychus urticae | 0% |
| CCn1nc2c(c1C(=O)NCc1ccc(C(C)(C)C)cc1)CCC2 | Tetranychus urticae | 0% |
| CCC(C)c1ccc(CNC(=O)c2c3c(nn2C)CCC3)cc1 (centres undefined) | Tetranychus urticae | 3% |
| CN(Cc1ccc(C(C)(C)C)cc1)C(=O)c1c2c(nn1C)CCC2 | Tetranychus urticae | 0% |
| CC(C)(C)c1ccc(CNC(=O)c2c3c(nn2C(C)(C)C)CCC3)cc1 | Tetranychus urticae | 0% |
| CC(C)c1ccc(CNC(=O)c2c3c(nn2C)CCC3)cc1 | Tetranychus urticae | 2% |
| CC(C)n1nc2c(c1C(=O)NCc1ccc(C(C)(C)C)cc1)CCC2 | Tetranychus urticae | 0% |
| CC(C)Cc1ccc(CNC(=O)c2c3c(nn2C)CCC3)cc1 | Tetranychus urticae | 0% |
| Cn1nc2c(c1C(=O)NCc1ccc([Si](C)(C)C)cc1)CCC2 | Tetranychus urticae | 3% |
| Cn1nc2c(c1C(=O)SCc1ccc(C(C)(C)C)cc1)CCC2 | Tetranychus urticae | 0% |
| CC1CC(C)c2c1nn(C)c2C(=O)NCc1ccc(C(C)(C)C)cc1 (centres undefined) | Tetranychus urticae | 0% |
